# protocol.notes: Quantitative High-Throughput drug screen in 47 multiple myeloma cell lines against the NCATS MIPE library collection: JIM3_ECACC cell viability assay (AID 1918963; further: nearly all actives have a fitted effect of over 35% in size)
# test.settings: JIM3 myeloma viability, CellTiter-Glo ATP, 48 h; series mostly up to 45.8 µM
Records with an inconclusive call do not appear. Activity calls are given as the source filed them. The call rests on the fitted dose curve; in most records, active means well fitted cell-killing curve with a large enough effect; inconclusive means small, poorly fitted or top-dose-only effect; inactive means no such curve, though single readings can be large or run the other way.
Choose one outcome from this list and give only that: t = active, f = inactive

>  <molecule>
Clc1ccc2c(c1)C(N1CCNCC1)=Nc1ccccc1O2

>  <discrete.label>
t

$$$$
>  <molecule>
Cc1cc(C(C)(C)C)cc(C)c1CC1=NCCN1

>  <discrete.label>
f

$$$$
>  <molecule>
CC(C)C(=O)Nc1ccc([N+](=O)[O-])c(C(F)(F)F)c1

>  <discrete.label>
t

$$$$
>  <molecule>
CC(C)(Oc1ccc(C2CC2(Cl)Cl)cc1)C(=O)O (stereo unspecified)

>  <discrete.label>
f

$$$$
>  <molecule>
O=C1N(c2ccccc2)c2ccccc2C1(Cc1ccncc1)Cc1ccncc1

>  <discrete.label>
f

$$$$

Continue with the molecule presented below.
Task: Returns: the outcome recorded for NCCCCCC(=O)O in this assay.
Result: f

----------
# Test system: CP265
# protocol.notes: qHTS profiling for inhibitors of Plasmodium falciparum proliferation (AID 504749); further: nearly all actives have a fitted effect of over 60% in size
# test.settings: P. falciparum in erythrocytes, SYBR Green DNA, 72 h; series mostly up to 28.7 µM
Inconclusive results are not listed. Activity calls are given as the source filed them. The call rests on the fitted dose curve; in most records, active means well fitted inhibition curve with a large enough effect; inconclusive means small, poorly fitted or top-dose-only effect; inactive means flat fitted curve, though single readings scatter.
Choose one outcome from this list and give only that: active, inactive

Before answering, review these 5 worked examples.
>  <compound>
NS(=O)(=O)c1cc2c(cc1Cl)NCNS2(=O)=O

>  <discrete.label>
inactive

$$$$
>  <compound>
CN(C)CCC=C1c2ccccc2C=Cc2ccccc21

>  <discrete.label>
inactive

$$$$
>  <compound>
CCCCc1oc2ccccc2c1C(=O)c1cc(I)c(OCCN(CC)CC)c(I)c1

>  <discrete.label>
active

$$$$
>  <compound>
Clc1ccc(C(c2ccccc2Cl)C(Cl)Cl)cc1 (configuration not stated)

>  <discrete.label>
inactive

$$$$
>  <compound>
NC12CC3CC(CC(C3)C1)C2

>  <discrete.label>
inactive

$$$$

Task: Returns: the outcome recorded for O=c1c(-c2ccc(O)cc2)coc2cc(O)cc(O)c12 in this assay.
Result: inactive

Task: Returns: the outcome recorded for CC[N+](CC)(CC)CCOc1cccc(OCC[N+](CC)(CC)CC)c1OCC[N+](CC)(CC)CC in this assay.
Result: inactive

----------
# protocol.notes: qHTS of pediatric cancer cell lines to identify multiple opportunities for drug repurposing: Confirmatory screen for DAOY cells (AID 1347114); further: nearly all actives have a fitted effect of over 65% in size
# test.settings: DAOY medulloblastoma cells viability, cytotoxicity qHTS; series mostly up to 45.9 µM
# Procedure: Drug repurposing or repositioning has been offered as a strategy for drug development in oncology programs. […] [1] Shen, M et al. Quantitative high-throughput phenotypic screening of pediatric cancer cell lines identifies multiple opportunities for drug repurposing. […] Cells were assayed in growth media at a density of 500-1,000 cells/well. […] After a 15 min incubation at room temperature, samples were analyzed for luminescence intensity using a ViewLux High-throughput CCD imager equipped with clear filters.
Records with an inconclusive call do not appear. Active and inactive are the calls of the source. Calls follow the shape of the dose curve; as a rule, active = well fitted cell-killing curve with a large enough effect; inconclusive = small, poorly fitted or top-dose-only effect; inactive = no such curve, though single readings can be large or run the other way.
Choose one outcome from this list and give only that: active, inactive

Before answering, review these 3 worked examples.
>  <molecule>
CN(C)CCCN1c2ccccc2CCc2ccc(Cl)cc21

>  <discrete.label>
active

$$$$
>  <molecule>
CC(C)NCC(O)c1ccc(O)c(O)c1 (centres undefined)

>  <discrete.label>
inactive

$$$$
>  <molecule>
CC(CCc1ccc(O)cc1)NCCc1ccc(O)c(O)c1 (centres undefined)

>  <discrete.label>
inactive

$$$$

Continue with the molecule presented below.
Task: Returns: the outcome recorded for COc1cc2c(c(OC)c1OC)-c1ccc(OC)c(=O)cc1[C@@H](NC(C)=O)CC2 in this assay.
Result: active
